Overview of recorded pIC50 for various binders
Molecular target: HLA A0203 (human)
Assay: 125I-probe competition, purified HLA
pIC50: −log10 of the molar value.

# Binder, pIC50
rows = [
    ("CLYLHIQSL (modifications not checked) [HPV16.E1.259]", 7.68),
    ("VAWDSVYYM (modifications not checked) [HPV18.E2.136]", 5.88),
    ("SLQDIEITCV (modifications not checked) [HPV18.E6.24]", 7.42),
    ("FLLCFCVLL (modifications not checked) [HPV31.E5.15]", 7.47),
    ("KLTNKGICDL (modifications not checked) [HPV31.E6.90]", 6.23),
    ("FIYIPLFVI (modifications not checked) [HPV31.E5.66]", 7.33),
    ("TVYVFCFLL (modifications not checked) [HPV18.E5.51]", 6.11),
    ("GTLGIVCPV (modifications not checked) [HPV16.E7.85.V9]", 7.17),
    ("FVYIPLFLI (modifications not checked) [HPV16.E5.66]", 7.20),
    ("KLLEKLLCI (modifications not checked) [HPV31.E1.272]", 8.62),
]
